# Tested on: 5′-AF647-TtPreQ1-RS (RNA, riboswitch) CUGGGUCGCAGUAACCCCAGUUAACAAAACAAG
# ASSAY METHOD TEXT: fluorescence intensity titration of labelled RNA
# MEASUREMENT CONDITIONS: 100 mM KCl, 1 mM MgCl2; 50 mM Tris pH 7.5, 10% DMSO, room temperature, RNA 50 nM; apparent
QUANTITY MEASURED: KD (nM)

Recorded KD, per entry:
Recorded KD for CN(C)CCOc1ccc2oc3ccccc3c2c1 , please?
600

Moving on to the next compound: NCCOc1ccc2oc3ccccc3c2c1
457

I. CN(C)CCOc1ccc2[nH]c3ccccc3c2c1
II. NCc1c[nH]c2nc(N)[nH]c(=O)c12
Between item I and item II , which reported KD is smaller? Lab log: write the label of the selected item as the result.
II

----------
# System: 5′-Cy5-BsPreQ1-RS (RNA, riboswitch) AGAGGUUCUAGCUACACCCUCUAUAAAAAACUAA
# ASSAY METHOD TEXT: fluorescence intensity titration of labelled RNA
# MEASUREMENT CONDITIONS: 100 mM KCl, 1 mM MgCl2; 50 mM Tris pH 7.5, 10% DMSO, room temperature, RNA 50 nM; apparent
QUANTITY MEASURED: KD (nM)

So what does the record say about KD for NCCOc1ccc2oc3ccccc3c2c1 ?
534

A. CN(C)CCOc1ccc2oc3ccccc3c2c1
B. CN(C)CCOc1ccc2[nH]c3ccccc3c2c1
C. NCc1c[nH]c2nc(N)[nH]c(=O)c12
Order these by KD, descending, and give the full ranking. Provide the ranking by listing each label in its place in the requested order.
A, B, C
(A: 400 nM, B: 100 nM, C: 4.1 nM)

Where do these numbers come from? They come from paper PMC6445138.
